# experimental target: human SGLT1 (Homo sapiens (Human))
# Sequence (P13866 whole entry): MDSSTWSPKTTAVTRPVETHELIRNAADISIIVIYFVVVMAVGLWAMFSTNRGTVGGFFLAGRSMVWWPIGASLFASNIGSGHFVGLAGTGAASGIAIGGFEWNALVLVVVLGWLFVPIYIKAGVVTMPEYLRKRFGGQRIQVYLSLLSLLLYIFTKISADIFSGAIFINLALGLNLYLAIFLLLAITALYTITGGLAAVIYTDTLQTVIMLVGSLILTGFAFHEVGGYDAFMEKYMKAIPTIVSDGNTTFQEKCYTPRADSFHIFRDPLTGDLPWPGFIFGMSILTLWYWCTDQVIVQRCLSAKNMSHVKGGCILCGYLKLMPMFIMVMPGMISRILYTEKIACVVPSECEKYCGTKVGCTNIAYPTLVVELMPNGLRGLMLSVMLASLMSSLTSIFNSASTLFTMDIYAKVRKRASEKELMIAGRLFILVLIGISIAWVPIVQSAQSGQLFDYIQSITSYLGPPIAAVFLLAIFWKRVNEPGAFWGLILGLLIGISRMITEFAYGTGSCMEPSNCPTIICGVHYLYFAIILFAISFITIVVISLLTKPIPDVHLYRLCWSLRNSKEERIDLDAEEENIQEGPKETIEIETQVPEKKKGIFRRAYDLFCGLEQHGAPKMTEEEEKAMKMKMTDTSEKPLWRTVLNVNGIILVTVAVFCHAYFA
# test summary: SGLT1 inhibitory activity: 14C-AMG uptake into CHO-K1 cell line stably expressing human SGLT1
# Format: cell-based
# conditions: 14C-AMG uptake, CHO-K1 cells stably expressing human SGLT1
Kindly state pIC50 for each of the entries shown.
Value format note: pIC50 is -log10 of concentration (mol/L); just state the number.

Qu. What value of pIC50 has been recorded for this entry: CCOc1cccc(-n2nc(NC(=O)[C@@H]3CNC(=O)C3)cc2-c2cccc(OC(F)(F)F)c2)c1 [Example 443]
Ans. 7.96

Qu. Consider next the compound CCC1C(=O)NCC1C(=O)Nc1cc(-c2cccc(OC(F)(F)F)c2)n(-c2ccccc2)n1 (single isomer, unassigned) [Example 308] in the same way.
Ans. 7.80

Qu. Consider next the compound CC(C)(OCc1cc(F)cc(-c2cc(NC(=O)[C@@H]3CNC(=O)C3)nn2-c2ccc(F)cc2)c1)C(F)(F)F [Example 595] in the same way.
Ans. 8.00

Qu. Consider next the compound CCCOc1cc(-n2nc(NC(=O)[C@@H]3CNC(=O)C3)cc2-c2cccc(OC(F)(F)F)c2)ccc1F [Example 423] in the same way.
Ans. 7.80

====

# experimental target: human SGLT1 (Homo sapiens (Human))
# test summary: SGLT1 inhibitory activity: 14C-AMG uptake into CHO-K1 cell line stably expressing human SGLT1
# Format: cell-based
# conditions: 14C-AMG uptake, CHO-K1 cells stably expressing human SGLT1
reported metric: pIC50
Value format note: pIC50 is -log10 of concentration (mol/L); just state the number.

Qu. What value of pIC50 has been recorded for this entry: `CCCc1cccc(-c2cc(NC(=O)[C@@H]3CNC(=O)C3)nn2-c2cccc(Cl)c2)c1`
Ans. 8.22

Qu. Consider next the molecule `COCCOc1ccc(F)c(-n2nc(NC(=O)[C@@H]3CNC(=O)C3)cc2-c2cccc(OC(F)(F)F)c2)c1` in the same way.
Ans. 7.96

Qu. Consider next the molecule `CC(OCc1cccc(-c2cc(NC(=O)[C@H]3CNC(=O)C3)nn2-c2ccccc2)c1)(C(F)(F)F)C(F)(F)F` in the same way.
Ans. 8.08

Qu. Consider next the molecule `CC(C)Oc1cccc(-n2nc(NC(=O)[C@@H]3CNC(=O)C3)cc2-c2cccc(CO[C@H](C)C(F)(F)F)c2)c1F` in the same way.
Ans. 8.19

====

Kindly state pIC50 for each of the entries shown.
# experimental target: human SGLT1 (Homo sapiens (Human))
# test summary: SGLT1 inhibitory activity: 14C-AMG uptake into CHO-K1 cell line stably expressing human SGLT1
# Format: cell-based
# conditions: 14C-AMG uptake, CHO-K1 cells expressing human SGLT1
Value format note: pIC50 is -log10 of concentration (mol/L); just state the number.

Qu. What value of pIC50 has been recorded for this entry: O=C1C[C@@H](C(=O)Nc2cc(-c3cccc(OCCC(F)(F)F)c3)n(-c3ccc(Cl)cc3)n2)CN1 [Example 160]
Ans. 7.96

Qu. Consider next the compound CCC(C)(C)c1cccc(-c2cc(NC(=O)[C@H]3CNC(=O)C3)nn2-c2ccccc2)c1 [Example 52] in the same way.
Ans. 8.43

Qu. Consider next the compound CC(C)(C)c1cccc(-c2cc(NC(=O)[C@H]3CNC(=O)C3)nn2-c2ccccc2)c1 [Example 25] in the same way.
Ans. 8.74

Qu. Consider next the compound CCC(F)(F)c1cccc(-c2cc(NC(=O)[C@H]3CNC(=O)C3)nn2CCC(C)C)c1 [Example 142] in the same way.
Ans. 8.04

Qu. Consider next the compound CCCc1cccc(-c2cc(NC(=O)[C@@H]3CNC(=O)C3)nn2Cc2ccccc2)c1 [Example 99] in the same way.
Ans. 7.14

Qu. Consider next the compound CCC(F)(F)c1cccc(-c2cc(NC(=O)[C@H]3CNC(=O)[C@@H]3C)nn2-c2ccccc2Cl)c1 [Example 208] in the same way.
Ans. 8.89

Qu. Consider next the compound O=C1C[C@@H](C(=O)Nc2cc(-c3cccc(OC(F)(F)F)c3)n(-c3ccc(F)cc3)n2)CN1 [Example 147] in the same way.
Ans. 7.82

Qu. Consider next the compound CCC(F)(F)c1cccc(-c2cc(NC(=O)[C@H]3CNC(=O)C3)nn2CCC(C)(C)C)c1 [Example 143] in the same way.
Ans. 8.19

Qu. Consider next the compound O=C1C[C@@H](C(=O)Nc2cc(-c3cccc(OC(F)(F)F)c3)n(-c3ccc(Cl)cc3)n2)CN1 [Example 105] in the same way.
Ans. 7.43

Qu. Consider next the compound C[C@H]1C(=O)NC[C@@H]1C(=O)Nc1cc(-c2cccc(C(F)(F)F)c2)n(-c2ccc(F)cc2)n1 [Example 202] in the same way.
Ans. 7.92

Qu. Consider next the compound O=C1C[C@H](C(=O)Nc2cc(-c3cccc(C4CC4)c3)n(-c3ccccc3)n2)CN1 [Example 93] in the same way.
Ans. 7.51

Qu. Consider next the compound CCCc1cccc(-c2cc(NC(=O)[C@H]3CNC(=O)C3)nn2CCC(C)C)c1 [Example 135] in the same way.
Ans. 7.96

====

# experimental target: human SGLT1 (Homo sapiens (Human))
# test summary: SGLT1 inhibitory activity: 14C-AMG uptake into CHO-K1 cell line stably expressing human SGLT1
# Format: cell-based
# conditions: 14C-AMG uptake, CHO-K1 cells expressing human SGLT1
reported metric: IC50
Give the value; after it, write the unit.

Qu. What value of IC50 has been recorded for this entry: `CCCc1cccc(-c2cc(NC(=O)[C@H]3CNC(=O)C3)nn2C2CCCCCC2)c1`
Ans. 6.7 nM

Qu. Consider next the compound `CCCc1cccc(-c2cc(NC(=O)[C@@H]3CNC(=O)C3)nn2-c2ccc(Cl)cc2)c1` in the same way.
Ans. 16 nM

Qu. Consider next the compound `CCCc1cccc(-c2cc(NC(=O)[C@H]3CNC(=O)C3)nn2-c2ccc(OC)cc2)c1` in the same way.
Ans. 11 nM

Qu. Consider next the compound `Cc1ccccc1-n1nc(NC(=O)[C@H]2CNC(=O)[C@@H]2C)cc1-c1cccc(OCC(F)(F)F)c1` in the same way.
Ans. 2.1 nM

Qu. Consider next the compound `CCCc1cccc(-c2cc(NC(=O)[C@@H]3CNC(=O)C3)nn2CC2CCCCC2)c1` in the same way.
Ans. 83 nM

Qu. Consider next the compound `CCCc1cccc(-c2cc(NC(=O)[C@H]3CNC(=O)C3)nn2-c2cccc(OC)c2)c1` in the same way.
Ans. 5 nM

Qu. Consider next the compound CCCc1cccc(-c2cc(NC(=O)C3CNC(=O)C3)nn2C2CCCCC2)c1 (racemic) in the same way.
Ans. 12 nM

Qu. Consider next the compound `Cc1ccc(-n2nc(NC(=O)[C@H]3CNC(=O)C3)cc2-c2cccc(OC(F)(F)F)c2)cc1` in the same way.
Ans. 20 nM

Sourced from patent US8846746B2
